Test system: UO-31 renal
Test: NCI tumour cell line growth inhibition, 48 h
Quick list: TGI per entry.

The examples below pair each entry with its known result.
COc1cc(C(=O)C/C(CCC(=O)Nc2ccccc2[N+](=O)[O-])=N\NC(=O)CC#N)ccc1O
> 100 µM
O=C1OC(CCCl)(c2ccccc2)CC1CN1CCOCC1 (centres undefined)
> 100 µM
COc1c2c(cc3oc(C)cc(=O)c13)OC(=N)C(C(N)=O)C2CC(=O)c1ccc(N)cc1 (centres undefined)
> 100 µM
CCN(C(=O)N1CCN(c2cc3c(cc2F)c(=O)c(C(=O)O)cn3C2CC2)CC1)c1nc(-c2ccc(C)cc2)cs1
> 100 µM
CNC(=O)N1CN(c2ccccc2)C2(CCN(CCCC(=O)c3ccc(F)cc3)CC2)C1=O
28.1 µM

Q: Read the entry CCOC(=O)C1=C(O)C(=O)c2ccsc2C1=O and write its reported TGI.
A: > 100 µM

Q: Read the entry Cn1cnc2nc(Cl)nc(NC(C)(C)C(C)(C)O)c21 and write its reported TGI.
A: > 100 µM

Q: Read the entry O=C(NN1C(=O)CSC12CCCCC2)c1[nH]c2ccc(F)cc2c1-c1ccccc1 and write its reported TGI.
A: 80.9 µM
